System: Tubulin (Sus scrofa)
Assay: Induction of porcine brain tubulin polymerization at 5 uM relative to 25 uM epothilone B
Tag: label 1 if measured Activity is not below 40%, label 0 if it is.

# count of solved cases: 3
>>> category_label("C/C(=C\\c1csc(C)n1)[C@@H]1CC2O[C@@H]2CCC[C@H](C)[C@H](O)[C@@H](C)C(=O)C(C)(C)[C@@H](O)CC(=O)O1 (single isomer, unassigned)")
"label 1"
>>> category_label("C/C(=C\\c1csc(C)n1)[C@@H]1C[C@@H]2OC(c3ccc(C)cc3)=N[C@H]2CCC[C@H](C)[C@H](O)[C@@H](C)C(=O)C(C)(C)[C@@H](O)CC(=O)O1")
"label 1"
>>> category_label("C/C(=C\\c1csc(C)n1)[C@@H]1C[C@@H]2OC(c3ccccc3)=N[C@H]2CCC[C@H](C)[C@H](O)[C@@H](C)C(=O)C(C)(C)[C@@H](O)CC(=O)O1")
"label 1"

Exam item: Has C/C(=C\c1csc(C)n1)[C@@H]1C[C@@H]2OC(c3ccc(C(C)C)cc3)=N[C@H]2CCC[C@H](C)[C@H](O)[C@@H](C)C(=O)C(C)(C)[C@@H](O)CC(=O)O1 a recorded Activity greater than or equal to 40%?
Marked response: label 0

Exam item: Has C/C(=C\c1csc(C)n1)[C@@H]1C[C@@H]2OC(c3ccc(C(C)(C)C)cc3)=N[C@H]2CCC[C@H](C)[C@H](O)[C@@H](C)C(=O)C(C)(C)[C@@H](O)CC(=O)O1 a recorded Activity greater than or equal to 40%?
Marked response: label 0

Exam item: Has CCc1ccc(C2=N[C@H]3CCC[C@H](C)[C@H](O)[C@@H](C)C(=O)C(C)(C)[C@@H](O)CC(=O)O[C@H](/C(C)=C/c4csc(C)n4)C[C@@H]3O2)cc1 a recorded Activity greater than or equal to 40%?
Marked response: label 0

Exam item: Has C/C(=C\c1csc(C)n1)[C@@H]1C[C@@H]2OC(c3cccnc3)=N[C@H]2CCC[C@H](C)[C@H](O)[C@@H](C)C(=O)C(C)(C)[C@@H](O)CC(=O)O1 a recorded Activity greater than or equal to 40%?
Marked response: label 1
